Recorded IC50, rat T cell proliferation, experiment 1, one value per entry.
- test.target: rat IL-21R expressed on cells (rat)
- assay: cell-based or functional assay
Give a bare numeral; the unit nM is implied.

Some solved entries appear below for comparison.
>>> value_observed("AbV (antibody, human IgG1, V domains shown) VH: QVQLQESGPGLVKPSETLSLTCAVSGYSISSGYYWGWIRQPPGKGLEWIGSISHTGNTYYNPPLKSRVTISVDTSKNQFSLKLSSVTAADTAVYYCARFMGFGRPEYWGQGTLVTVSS VL: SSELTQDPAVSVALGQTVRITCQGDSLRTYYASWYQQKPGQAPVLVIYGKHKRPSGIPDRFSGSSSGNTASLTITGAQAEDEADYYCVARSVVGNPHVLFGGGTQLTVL")
70.5
>>> value_observed("AbS (antibody, V domains shown, CDR3 graft, residue limits derived as for m29; also called VHP/VL6; VHPTM/VL6) VH: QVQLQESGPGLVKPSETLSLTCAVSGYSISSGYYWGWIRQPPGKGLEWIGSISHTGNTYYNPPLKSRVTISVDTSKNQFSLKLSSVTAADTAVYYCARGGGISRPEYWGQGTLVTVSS VL: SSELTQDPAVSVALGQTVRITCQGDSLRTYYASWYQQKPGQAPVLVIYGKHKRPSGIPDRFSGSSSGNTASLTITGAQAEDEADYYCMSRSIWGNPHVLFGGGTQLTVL")
36
>>> value_observed("AbU (antibody, human IgG1, V domains shown, CDR3 graft, residue limits derived as for m29; also called VHP/VL25; VHPTM/VL25) VH: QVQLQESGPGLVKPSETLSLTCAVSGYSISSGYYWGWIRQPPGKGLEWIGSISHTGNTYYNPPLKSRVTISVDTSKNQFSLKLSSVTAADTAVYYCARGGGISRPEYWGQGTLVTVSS VL: SSELTQDPAVSVALGQTVRITCQGDSLRTYYASWYQQKPGQAPVLVIYGKHKRPSGIPDRFSGSSSGNTASLTITGAQAEDEADYYCTTRSNKGNPHVLFGGGTQLTVL")
173

Record AbW (antibody, human IgG1, V domains shown) VH: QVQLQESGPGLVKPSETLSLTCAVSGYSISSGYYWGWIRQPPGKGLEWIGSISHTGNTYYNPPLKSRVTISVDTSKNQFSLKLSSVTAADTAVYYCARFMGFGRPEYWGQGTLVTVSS VL: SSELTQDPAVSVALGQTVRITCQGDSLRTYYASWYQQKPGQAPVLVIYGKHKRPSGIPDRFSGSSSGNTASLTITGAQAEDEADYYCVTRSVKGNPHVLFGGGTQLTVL , field IC50, rat T cell proliferation, experiment 1: 159
